test system: Digitaria sanguinalis; assay: Herbicidal activity against Digitaria sanguinalis (hairy crabgrass) assessed as inhibition of root growth at 50 ppm after 6 days by flat-utensil method relative to control; assay type: functional; details: 144 h, read-out: GI
Here, each record is paired with measured inhibition of growth at 50 ppm data.

COMPOUND	inhibition of growth at 50 ppm [%]
Cc1cc(C)n2s/c(=N\C(=O)C(c3ccc(Cl)cc3)C(C)C)nc2n1 (racemic)	30
CC(C)[C@H](C(=O)/N=c1/nc2nc(Cl)cc(Cl)n2s1)c1ccc(Cl)cc1	0
Cc1cc(Cl)n2s/c(=N\C(=O)[C@H](c3ccc(Cl)cc3)C(C)C)nc2n1	30
COc1cc(Cl)n2s/c(=N\C(=O)[C@H](c3ccc(Cl)cc3)C(C)C)nc2n1	0
Cc1cc(C)n2s/c(=N\C(=O)[C@H](c3ccc(Cl)cc3)C(C)C)nc2n1	45
COc1cc(OC)n2s/c(=N\C(=O)[C@H](c3ccc(Cl)cc3)C(C)C)nc2n1	40
COc1cc(OC)n2s/c(=N\C(=O)C(c3ccc(Cl)cc3)C(C)C)nc2n1 (racemic)	30
Cc1cc(O)n2s/c(=N\C(=O)[C@H](c3ccc(Cl)cc3)C(C)C)nc2n1	20

* * *

system: Digitaria sanguinalis; assay: Herbicidal activity against Digitaria sanguinalis (hairy crabgrass) assessed as inhibition of stalk growth at 50 ppm after 6 days by flat-utensil method relative to control; assay type: functional; conditions: 144 h, read-out: GI
Here, each record is paired with measured inhibition of growth at 50 ppm data.
PROPERTY NAME: inhibition of growth at 50 ppm (%)

COMPOUND	SYSTEM UNDER TEST	QUANTITATIVE READOUT
CC(C)[C@H](C(=O)/N=c1/nc2nc(Cl)cc(Cl)n2s1)c1ccc(Cl)cc1	Digitaria sanguinalis	0
COc1cc(Cl)n2s/c(=N\C(=O)[C@H](c3ccc(Cl)cc3)C(C)C)nc2n1	Digitaria sanguinalis	0
Cc1cc(C)n2s/c(=N\C(=O)C(c3ccc(Cl)cc3)C(C)C)nc2n1 (racemic)	Digitaria sanguinalis	40
Cc1cc(O)n2s/c(=N\C(=O)[C@H](c3ccc(Cl)cc3)C(C)C)nc2n1	Digitaria sanguinalis	10
Cc1cc(C)n2s/c(=N\C(=O)[C@H](c3ccc(Cl)cc3)C(C)C)nc2n1	Digitaria sanguinalis	55
Cc1cc(Cl)n2s/c(=N\C(=O)[C@H](c3ccc(Cl)cc3)C(C)C)nc2n1	Digitaria sanguinalis	30
COc1cc(OC)n2s/c(=N\C(=O)C(c3ccc(Cl)cc3)C(C)C)nc2n1 (racemic)	Digitaria sanguinalis	35
COc1cc(OC)n2s/c(=N\C(=O)[C@H](c3ccc(Cl)cc3)C(C)C)nc2n1	Digitaria sanguinalis	50

* * *

tested on: Chenopodium ficifolium; test: Herbicidal activity against Chenopodium ficifolium assessed as inhibition of stalk growth at 50 ppm after 6 days by flat-utensil method relative to control; format: functional; details: 144 h, read-out: GI

COMPOUND	inhibition of growth at 50 ppm
COc1cc(Cl)n2s/c(=N\C(=O)[C@H](c3ccc(Cl)cc3)C(C)C)nc2n1	10%
CC(C)[C@H](C(=O)/N=c1/nc2nc(Cl)cc(Cl)n2s1)c1ccc(Cl)cc1	20%
COc1cc(OC)n2s/c(=N\C(=O)C(c3ccc(Cl)cc3)C(C)C)nc2n1 (racemic)	20%
Cc1cc(O)n2s/c(=N\C(=O)[C@H](c3ccc(Cl)cc3)C(C)C)nc2n1	70%
COc1cc(OC)n2s/c(=N\C(=O)[C@H](c3ccc(Cl)cc3)C(C)C)nc2n1	90%
